system: HCC-15; test: relative viability (nuclei count vs DMSO), 5 days (fraction); higher = more cells survive; settings: first compound 0.01 µM
observable: relative viability

# lookup: relative viability of Cc1cn(-c2cc(NC(=O)c3ccc(C)c(Nc4nccc(-c5cccnc5)n4)c3)cc(C(F)(F)F)c2)cn1 [Nilotinib] + CS(=O)(=O)N1CCN(Cc2cc3nc(-c4cccc5[nH]ncc45)nc(N4CCOCC4)c3s2)CC1 [Pictilisib] (partner 1 µM)
0.843

Entry Cc1cn(-c2cc(NC(=O)c3ccc(C)c(Nc4nccc(-c5cccnc5)n4)c3)cc(C(F)(F)F)c2)cn1 [Nilotinib] + Nc1nc2[nH]cc(CCc3ccc(C(=O)N[C@@H](CCC(=O)O)C(=O)O)cc3)c2c(=O)[nH]1 [Pemetrexed] (partner 0.2 µM) : reported relative viability = ?
0.204

Recorded relative viability for Cc1cn(-c2cc(NC(=O)c3ccc(C)c(Nc4nccc(-c5cccnc5)n4)c3)cc(C(F)(F)F)c2)cn1 [Nilotinib] + COc1cc2c(Oc3ccc(NC(=O)C4(C(=O)Nc5ccc(F)cc5)CC4)cc3F)ccnc2cc1OCCCN1CCOCC1 [Foretinib] (partner 0.25 µM) , please?
1.09

Look at this molecule and give its reported relative viability. Cc1cn(-c2cc(NC(=O)c3ccc(C)c(Nc4nccc(-c5cccnc5)n4)c3)cc(C(F)(F)F)c2)cn1 [Nilotinib] + CC1(C)CCC(c2ccc(Cl)cc2)=C(CN2CCN(c3ccc(C(=O)NS(=O)(=O)c4ccc(N[C@H](CCN5CCOCC5)CSc5ccccc5)c(S(=O)(=O)C(F)(F)F)c4)cc3)CC2)C1 [Navitoclax] (partner 0.5 µM)
0.716

Value source: the supplement of paper PMC10307832
